Tested on: A673/TR/shEF
Assay: cell viability (LOESS-normalised, relative to median of negative controls) (log2 ratio); higher = more viable cells (less compound effect), active = hit call of the paper (over 3 MAD below the median)
Conditions: 2.5 µM; library screen: screen1; EWS-FLI1 expression: high (no doxycycline); treatment time: 72 h
About 300 (9.4%) of roughly 3,200 compounds showed activity. What follows is part of a selection rich in actives, with near analogues and random picks from the rest.
Respond only with the outcome that fits, drawn from y = active, n = inactive

Data request: So what was the verdict on CC1(C)C(=O)C=C[C@]2(C)C3CC[C@@]4(C)[C@H](c5ccoc5)C[C@H]5O[C@]54C3[C@H](O)CC12 (stereo partly specified) in this test?
Data returned: n

Data request: So what was the verdict on CCCC(C)C1(CC)C(=O)NC(=S)NC1=O (stereo unspecified) in this test?
Data returned: n

Data request: So what was the verdict on CC1(C(=O)O)C2CCC(O2)C1(C)C(=O)O (stereo unspecified) in this test?
Data returned: n

Data request: So what was the verdict on CCCCCC[C@H]1C(=O)O[C@H](C)[C@H](NC(=O)c2cccc(NC=O)c2O)C(=O)O[C@@H](C)[C@@H]1OC(=O)CC(C)C in this test?
Data returned: y

Data request: So what was the verdict on CC[C@H]1CN2CCc3cc(OC)c(OC)cc3[C@@H]2C[C@@H]1C[C@H]1NCCc2cc(OC)c(OC)cc21 in this test?
Data returned: y

Data request: So what was the verdict on COc1cccc2c1cc([N+](=O)[O-])c1c(C(=O)O)cc3c(c12)OCO3 in this test?
Data returned: y

Data request: So what was the verdict on COc1c2c(cc3c1OCO3)CCN(C)C2 in this test?
Data returned: n

Data request: So what was the verdict on CCOP(=S)(OCC)SCSCC in this test?
Data returned: n

Data request: So what was the verdict on COc1cc2c(cc1OC)C(C)NCC2 (stereo unspecified) in this test?
Data returned: n

Data request: So what was the verdict on C[C@@]12C(=O)OC(=O)[C@]1(C)[C@H]1CC[C@@H]2O1 in this test?
Data returned: n

Data request: So what was the verdict on O=C1C=C2C(=CCOC2O)O1 (stereo unspecified) in this test?
Data returned: y
